outcome measure: melting point (°C)
Lab book: enter the figure in °C, no units written.

Guide cases for melting point, answers given:
Br.CCCCc1ccc(NC(=O)C2CSC(=NC3CCCCCC3)N2C)cc1 (centres unmarked) ... 240.8
CN1C(=NC2CCCCCC2)SCC1C(=O)Nc1ccccc1.Cl (centres unmarked) ... 211.4
CN1C(=NC2CCCCCC2)SCC1C(=O)Nc1cc(Cl)ccc1F (centres unmarked) ... 241.2
CC(C)N1C(=NC23CC4CC(CC(C4)C2)C3)SCC1CC(=O)Nc1ccc(Cl)cc1.Cl (centres unmarked) ... 236
CC1SC(=NC2CCCC2)N(C)C1CC(=O)Nc1ccccc1F.Cl (centres unmarked) ... 153
Cl.O=C(CC1CSC(=NC2CCCCC2)N1Cc1ccccc1)Nc1ccc(F)cc1 (centres unmarked) ... 214.1

What value of melting point has been recorded for this entry: CN1C(=NC2CCCCC2)SCC1CC(=O)Nc1cc(Cl)c(Cl)cc1Cl.Cl (centres unmarked)
186

What value of melting point has been recorded for this entry: CN1C(=NCC2CCCCC2)SCC1CC(=O)Nc1cc([N+](=O)[O-])ccc1F.Cl (centres unmarked)
225

What value of melting point has been recorded for this entry: CC(C)N1C(=NC23CC4CC(CC(C4)C2)C3)SCC1CC(=O)Nc1cc(C(F)(F)F)cc(C(F)(F)F)c1.Cl (centres unmarked)
233

What value of melting point has been recorded for this entry: CCCN1C(=NC23CC4CC(CC(C4)C2)C3)SCC1CC(=O)Nc1ccc(Oc2ccccc2)cc1.Cl (centres unmarked)
135

What value of melting point has been recorded for this entry: CN1C(=NC2CCCCCC2)SCC1C(=O)Nc1ccc(C(C)(C)C)cc1 (centres unmarked)
170.8

What value of melting point has been recorded for this entry: Cc1cc(Cl)c(NC(=O)CC2CSC(=NC3CCCCC3)N2C)cc1Cl.Cl (centres unmarked)
146

What value of melting point has been recorded for this entry: CN1C(=NCCc2ccccc2)SCC1CC(=O)Nc1cc([N+](=O)[O-])ccc1F.Cl (centres unmarked)
196.4

What value of melting point has been recorded for this entry: CCCN1C(=NC2CCCCC2)SCC1CC(=O)Nc1cc(Cl)cc(Cl)c1.Cl (centres unmarked)
109.2

What value of melting point has been recorded for this entry: Cl.O=C(CC1CSC(=NC2CCCCC2)N1C1CCCCC1)Nc1cc(Cl)ccc1F (centres unmarked)
158

What value of melting point has been recorded for this entry: CN1C(=NC2CCCCC2)SCC1CC(=O)Nc1cccc([N+](=O)[O-])c1.Cl (centres unmarked)
207

What value of melting point has been recorded for this entry: CCCN1C(=NC2CCCCC2)SCC1CC(=O)Nc1ccc(C(C)C)cc1.Cl (centres unmarked)
207

Reference for the values: patent US7998989B2
